Assay: Phase I trial: clinical pharmacokinetics in plasma
Assay type: in vivo, human
Details: human, plasma, oral, 30 mg, Single dose day 1, 30 mg, n=1
MEASURED_PROPERTY: Cmax (ng/mL)

> print(dat)
                                   compound  numeric.value
1  Cc1c(C(=O)Nc2ccc(Oc3ccnc4cc(OCC(C)(C)O)ccc34)c(F)c2)c(=O)n(-c2ccccc2)n1C [CT053PTSA]            796

###

Target: UniProt Q9HBH9
Sequence (Q9HBH9 whole entry): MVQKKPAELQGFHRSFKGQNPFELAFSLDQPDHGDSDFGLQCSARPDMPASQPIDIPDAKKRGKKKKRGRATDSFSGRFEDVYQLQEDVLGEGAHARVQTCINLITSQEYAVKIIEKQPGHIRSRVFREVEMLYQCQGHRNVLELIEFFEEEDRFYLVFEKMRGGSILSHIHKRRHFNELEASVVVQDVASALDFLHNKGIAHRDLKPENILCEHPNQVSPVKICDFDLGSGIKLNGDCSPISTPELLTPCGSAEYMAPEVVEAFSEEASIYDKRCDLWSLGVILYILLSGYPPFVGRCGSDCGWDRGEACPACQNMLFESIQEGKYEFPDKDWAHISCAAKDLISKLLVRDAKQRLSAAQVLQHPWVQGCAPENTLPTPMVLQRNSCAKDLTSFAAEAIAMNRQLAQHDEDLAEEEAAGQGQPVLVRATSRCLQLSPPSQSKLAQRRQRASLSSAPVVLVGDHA
pIC50: −log10 of the molar value.
MEASURED_PROPERTY: pIC50

> print(dat)
                                   compound  numeric.value
1  Cc1c(C(=O)Nc2ccc(Oc3ccnc4cc(OCC(C)(C)O)ccc34)c(F)c2)c(=O)n(-c2ccccc2)n1C [CT053]           7.26
